Recorded values, source PubChem BioAssay.

experiment: glucagon-like peptide 1 release enhancers, primary assay, NCI-H716 cell line, NPC library (AID 1117341); conditions: NCI-H716 cells, at 10 µM, stronger effect = higher value; further: reference of the scale not given here
measurement.type: GLP1 secretion stimulation (%)

# compound, measurement.type, numeric.value
data = [
    ("C=CCNC(N)=S", "GLP1 secretion stimulation", -0.3),
    ("COc1cc2c(cc1OC)[C@@H]1CC(=O)[C@@H](CC(C)C)CN1CC2", "GLP1 secretion stimulation", -2.7),
    ("CCC(CC)(CC(=O)Nc1cccc(/C=C/c2nc(C3CCC3)cs2)c1)C(=O)O", "GLP1 secretion stimulation", 1.7),
    ("CN1C(CCl)Nc2cc(Cl)c(S(N)(=O)=O)cc2S1(=O)=O (configuration not stated)", "GLP1 secretion stimulation", -2.1),
    ("CC(C)OC(=O)C(C(=O)OC(C)C)=C1SC=CS1", "GLP1 secretion stimulation", 3.5),
    ("Clc1cc(Cl)c(OCC#CI)cc1Cl", "GLP1 secretion stimulation", -0.7),
    ("O=C(O)CN(CCN(CC(=O)O)CC(=O)O)CCN(CC(=O)O)CC(=O)O", "GLP1 secretion stimulation", 0.1),
    ("Clc1ccc(Nc2nnc(Cc3ccncc3)c3ccccc23)cc1", "GLP1 secretion stimulation", -2.6),
    ("CCC1Nc2cc(Cl)c(S(N)(=O)=O)cc2S(=O)(=O)N1 (configuration not stated)", "GLP1 secretion stimulation", 2),
    ("O=C(O)Cc1ccc(-c2ccccc2)cc1", "GLP1 secretion stimulation", 1.7),
    ("O=C(CCCl)NCCc1ccccc1", "GLP1 secretion stimulation", -1.9),
    ("CN1[C@@H]2CC(OC(=O)[C@H](CO)c3ccccc3)C[C@H]1[C@@H]1O[C@@H]12 (some centres not stated)", "GLP1 secretion stimulation", 2.4),
]

====

The entries below are paired with their reported insulin secretion stimulation.
test: stimulators of insulin release from INS-1E, primary screen, cell-based, 5 mM glucose, NPC library (AID 1117329); conditions: rat INS-1E insulin secretion, at 10 µM, stronger effect = higher value; further: reference of the scale not given here

# compound, insulin secretion stimulation / %
records = [
    ("NC(N)=NCCC[C@H](N)C(=O)O", 0.9),
    ("CCCCCCOC(=O)NC(=N)c1ccc(NCc2nc3cc(C(=O)N(CCC(=O)OCC)c4ccccn4)ccc3n2C)cc1", 0.9),
    ("CC(=O)N(CC(O)CO)c1c(I)c(C(=O)NCCO)c(I)c(C(=O)NCC(O)CO)c1I (stereo not given)", 0.3),
    ("C[C@]12CCC(=O)C=C1[C@@H]1C[C@@H]1[C@H]1[C@@H]3[C@@H]4C[C@@H]4[C@@]4(CCC(=O)O4)[C@@]3(C)CC[C@@H]12", 1.5),
    ("CC(=O)OCC(=O)[C@@]1(O)CCC2C3CCC4=CC(=O)CC[C@]4(C)C3[C@@H](O)C[C@@]21C (stereo not given in full)", -1.3),
    ("CCCCCCOC(=O)c1cccnc1", -1.25),
    ("CCn1ccnc1CC1COc2ccccc2O1 (stereo not given)", -3.2),
    ("CC(C)=CCCC(C)=CCCC(C)=CCCC=C(C)CCC=C(C)CCC=C(C)C", 0.6),
    ("O=C(CCCl)NCc1ccccc1", 1.8),
    ("C=CCN1C[C@H](C(=O)N(CCCN(C)C)C(=O)NCC)C[C@@H]2c3cccc4[nH]cc(c34)C[C@H]21", 0),
    ("CC1(C)CC1C(=O)NC(=CCCCCSCC(N)C(=O)O)C(=O)O (stereo not given)", 2.2),
    ("O=C(O)Cc1ccc(-c2ccccc2)cc1", -1.1),
    ("CN(C)CCn1nnnc1SCC1=C(C(=O)O)N2C(=O)[C@@H](NC(=O)Cc3csc(N)n3)[C@H]2SC1", 2.8),
    ("COc1ccc(-c2nc3ccc(C4=NNC(=O)CC4C)cc3[nH]2)cc1 (stereo not given)", 2.8),
    ("CC(C)(C)C(=O)OCOP(=O)(COCCn1cnc2c(N)ncnc21)OCOC(=O)C(C)(C)C", 3.5),
    ("O=P(O)(O)C(Cl)(Cl)P(=O)(O)O", 5.1),
    ("CCCCC(CC)COC(=O)CC(C(=O)OCC(CC)CCCC)S(=O)(=O)O (stereo not given)", -1.3),
    ("CC(C)Cn1cnc2c(N)nc3ccccc3c21", 0),
    ("CN/C(=C\\[N+](=O)[O-])NCCSCc1ccc(CN(C)C)o1", -1),
    ("Cc1ccc2c(c1)c1c3n2CCNC3CCC1 (stereo not given)", 0.5),
    ("CC[N+](CC)(CC)CCOc1ccc(/C=C/c2ccccc2)cc1", 1.3),
    ("Cn1c(=O)c2c(ncn2CC(=O)O)n(C)c1=O", 0.95),
    ("CC(C)OC(=O)OCOP(=O)(CO[C@H](C)Cn1cnc2c(N)ncnc21)OCOC(=O)OC(C)C", 13.8),
    ("COCC(=O)Nc1c(I)c(C(=O)NCC(O)CO)c(I)c(C(=O)N(C)CC(O)CO)c1I (stereo not given)", 3.5),
    ("CSc1ccc(C(=O)c2[nH]c(=O)[nH]c2C)cc1", 1.4),
    ("CC#C[C@]1(O)CC[C@H]2[C@@H]3CCC4=CC(=O)CCC4=C3[C@@H](c3ccc(N(C)C)cc3)C[C@@]21C", 1),
    ("CC(C)NCC(O)COc1cccc2[nH]ccc12 (stereo not given)", 0.3),
    ("N[C@@H](COP(=O)(O)O)C(=O)O", 2),
    ("CCN[C@H]1CN(CCCOC)S(=O)(=O)c2sc(S(N)(=O)=O)cc21", 3.9),
    ("COc1cc2ncnc(Nc3ccc(F)c(Cl)c3)c2cc1OCCCN1CCOCC1", 0.7),
    ("CCCCCOC(=O)Nc1nc(=O)n([C@@H]2O[C@H](C)[C@@H](O)[C@H]2O)cc1F", -0.1),
    ("Cc1cc(=O)c2c(O)c3c(O)cc(=O)c4c3c3c(cc(O)c1c23)C(C)(C)C=4O", 0.4),
    ("O=C(OOC(=O)c1ccccc1)c1ccccc1", -1.3),
    ("Nc1c[n+](N2CCOCC2)no1", -1.7),
    ("CCC1C(=O)OCC1Cc1cncn1C (stereo not given)", 3.7),
    ("CC(=O)Nc1c(I)c(NC(C)=O)c(I)c(C(=O)O)c1I", 1.5),
    ("O=C(OCCOCCO)c1ccccc1Nc1cccc(C(F)(F)F)c1", 0.3),
    ("C[C@@H]1CCC[C@H](C)N1", -1.2),
    ("COc1cccc(N(C)C(=S)Oc2ccc3c(c2)CCCC3)n1", -2.1),
    ("OC(CCN1CCCCC1)(c1ccccc1)C1CC2C=CC1C2 (stereo not given)", 4.5),
    ("CC(=O)N[C@@H](CC(C)C)C(=O)O", -1),
    ("CCCCC(CC)COC(=O)c1ccccc1O (stereo not given)", -2),
    ("CCOc1ccccc1OCCN[C@H](C)Cc1ccc(OC)c(S(N)(=O)=O)c1", 1.6),
    ("CCN(CC)CCCN(c1ccccc1)C1Cc2ccccc2C1", 32.5),
    ("O=C(Nc1ccccc1)OCC(CN1CCCCC1)OC(=O)Nc1ccccc1 (stereo not given)", 14.9),
]

====

experiment: circadian clock period modulators, cell-based, LOPAC library, luminescence reporter (AID 2774); conditions: circadian reporter cells, at 7 µM, actives lie on both sides;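 further: values are relative to mean of DMSO wells on each plate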
Calls of active or inactive are those of the source. How the calls were made is not given here.

# molecule, period change
data = [
    ("O=C1NCN(c2ccccc2)C12CCN(CCCC(c1ccc(F)cc1)c1ccc(F)cc1)CC2", "-0.085 h (inactive)"),
    ("NCCCC(N)(C(=O)O)C(F)F (stereo not given)", "-0.04 h (inactive)"),
    ("CCCCOc1cc(CC2CNC(=O)N2)ccc1OC (stereo not given)", "0.115 h (inactive)"),
    ("CN1C[C@H](C(=O)N[C@]2(C)O[C@@]3(O)[C@@H]4CCCN4C(=O)[C@H](Cc4ccccc4)N3C2=O)C[C@@H]2c3cccc4[nH]cc(c34)C[C@H]21", "0.225 h (inactive)"),
    ("CN(C)CCN(Cc1cccs1)c1ccccn1", "0.21 h (inactive)"),
    ("CN(C)c1nc(N)c(C(=O)N=C(N)N)nc1Cl", "-0.18 h (inactive)"),
    ("CN1CCN(CC/C=C2/c3ccccc3Sc3ccc(S(=O)(=O)N(C)C)cc32)CC1", "0.09 h (inactive)"),
    ("CCCN(CCC)CCc1cccc2c1CC(=O)N2", "0.155 h (inactive)"),
    ("O=C(N[C@@H](Cc1ccccc1)C(=O)CCl)OCc1ccccc1", "-0.215 h (inactive)"),
    ("CN(C)C(=O)C(CCN1CCC(O)(c2ccc(Cl)cc2)CC1)(c1ccccc1)c1ccccc1", "-0.235 h (inactive)"),
    ("CC(=O)NCCc1c[nH]c2ccc(O)cc12", "-0.07 h (inactive)"),
    ("CN[C@H](CC(C)C)C(=O)N[C@H]1C(=O)N[C@@H](CC(N)=O)C(=O)N[C@H]2C(=O)N[C@H]3C(=O)N[C@H](C(=O)N[C@H](C(=O)O)c4cc(O)cc(O)c4-c4cc3ccc4O)[C@H](O)c3ccc(c(Cl)c3)Oc3cc2cc(c3O[C@@H]2O[C@H](CO)[C@@H](O)[C@H](O)[C@H]2O[C@H]2C[C@](C)(N)[C@H](O)[C@H](C)O2)Oc2ccc(cc2Cl)[C@H]1O", "-0.05 h (inactive)"),
    ("O=C(O)CN(CCOCCOCCN(CC(=O)O)CC(=O)O)CC(=O)O", "0.1 h (inactive)"),
    ("NC(N)=NC(N)=Nc1ccccc1", "0.065 h (inactive)"),
    ("C#CCN(C)CCCOc1ccc(Cl)cc1Cl", "0.03 h (inactive)"),
    ("NC(=O)CC[C@H](N)C(=O)O", "-0.065 h (inactive)"),
    ("CC(C)(C)c1ccc(C(O)CCCN2CCC(C(O)(c3ccccc3)c3ccccc3)CC2)cc1 (stereo not given)", "0.22 h (inactive)"),
    ("CCN1CCCC1CNC(=O)c1cc(S(N)(=O)=O)ccc1OC (stereo not given)", "-0.06 h (inactive)"),
    ("COc1ccc(CCN(C)CCCC(C#N)(c2cc(OC)c(OC)c(OC)c2)C(C)C)cc1OC (stereo not given)", "-0.105 h (inactive)"),
    ("CC1=C(C)C(=O)C(CCCCC#CCCCC#CCO)=C(C)C1=O", "-0.105 h (inactive)"),
]
